Listing: perturbation Mahalanobis distance of selected molecules
Tested on: MCF10A
Test description: perturbation Mahalanobis distance of morphological profile vs DMSO controls (Mahalanobis distance (SD units)); higher = stronger morphological change, active = 7 or more
Protocol conditions: screen batch: Batch1_Mahalanobis_Distance; 72 h

Solved entries:
Molecule: CO[C@H]1/C=C/O[C@@]2(C)Oc3c(C)c(O)c4c(c3C2=O)C2=NC3(CCN(CC(C)C)CC3)NC2=C(NC(=O)/C(C)=C\C=C\[C@H](C)[C@H](O)[C@@H](C)[C@@H](O)[C@@H](C)[C@H](OC(C)=O)[C@@H]1C)C4=O [Rifabutin] (0.89 µM)
perturbation Mahalanobis distance: 6.13 (inactive)
//
Molecule: CC[N+](C)(CC)CCOC(=O)C(O)(c1ccccc1)C1CCCCC1 (stereo not given) [Oxyphenonium Bromide] (0.07 µM)
perturbation Mahalanobis distance: 2.2 (inactive)
//
Molecule: NNc1nncc2ccccc12 [Hydralazine] (15.6 µM)
perturbation Mahalanobis distance: 4.07 (inactive)
//
Molecule: COc1cc(C(=O)NS(=O)(=O)c2ccccc2C)ccc1Cc1cn(C)c2ccc(NC(=O)OC3CCCC3)cc12 [Zafirlukast] (0.26 µM)
perturbation Mahalanobis distance: 2.19 (inactive)
//
Molecule: Cc1c(OCC(F)(F)F)ccnc1CS(=O)c1nc2ccccc2[nH]1 (stereo not given) [Lansoprazole] (23 µM)
perturbation Mahalanobis distance: 4.87 (inactive)

Consider the additional molecule presented here.
Find the recorded perturbation Mahalanobis distance belonging to COC(=O)[C@H](c1ccccc1Cl)N1CCc2sccc2C1 [Clopidogrel] (0.12 µM) and report it. 3.1 (inactive)

Where do these numbers come from? They come from the supplement of paper PMC6853941.
